Test system: ENR+CD organoids (ISC to Paneth cell differentiation)
Test details: Primary screen: basal (non-stimulated) lysozyme secretion LYZ.NS, 2.5-D 384-well ENR+CD organoid differentiation
Type: cell-based, mouse
Test context: primary screen, dose 0.40 uM
Counter-ions that a name gives are not always drawn.
In this scheme, each record receives a class according to its Z.LYZ.NS (standard z score); the ranges are low-valued = under -0.2, mid-valued = from -0.2 up to 0.3, high-valued = 0.3 and over

Completed entries (count: 10):
CN(C)C(=O)c1ccc(S(=O)(=O)c2ccc(NC(=O)[C@@](C)(O)C(F)(F)F)c(Cl)c2)cc1 [AZD7545] ... low-valued
CC[C@H](NC(=O)[C@H](C)NC)C(=O)N1C[C@@H](O)C[C@H]1Cc1c(-c2[nH]c3cc(F)ccc3c2C[C@@H]2C[C@H](O)CN2C(=O)[C@H](CC)NC(=O)[C@H](C)NC)[nH]c2cc(F)ccc12 [Birinapant] ... mid-valued
COc1cc(OC2CCN(C)CC2)ccc1Nc1ncc2c(n1)n(C1CCCC1)c(=O)n2C [AZ 3146] ... low-valued
COCC[n+]1c2c(n(Cc3cnccn3)c1C)C(=O)c1ccccc1C2=O.[Br-] [YM155 (Sepantronium Bromide)] ... low-valued
CCOC(=O)N1CCC(=C2c3ccc(Cl)cc3CCc3cccnc32)CC1 [Loratadine] ... mid-valued
N#Cc1ccc(C(c2ccc(C#N)cc2)n2cncn2)cc1 [Letrozole] ... high-valued
CN(C)C(=O)Nc1cccc(-c2ccc(N(C)C)cc2)c1 [Atglistatin] ... high-valued
Clc1ccccc1CN1CCc2sccc2C1 [Ticlopidine HCl] ... mid-valued
Nc1nc(N)c2nc(-c3cccc(O)c3)c(-c3cccc(O)c3)nc2n1 [TG100-115] ... low-valued
CCn1c(=O)c2c(nc(/C=C/c3ccc(OC)c(OC)c3)n2C)n(CC)c1=O [Istradefylline] ... low-valued

Q: State the band of NC(=O)Nc1sc(-c2ccc(F)cc2)cc1C(N)=O [TPCA-1]
A: low-valued

Q: State the band of CN(C)CCCCC(=O)Nc1ccc(NC(=S)NC(=O)c2ccc(C(C)(C)C)cc2)cc1 [Tenovin-6]
A: low-valued

Q: State the band of C[C@@H]1CN(CC(=O)Nc2ccc3c(c2)Cc2cccc(-c4cc(=O)cc(N5CCOCC5)o4)c2S3)C[C@H](C)O1 [KU-60019]
A: mid-valued
